Entry source: patent US20120088668A1

Kindly state Mean Number of Buds/plant for each of the entries shown.
test system: Chrysanthemum cv Herby Mixed; test: Flower bud thinning, Chrysanthemum cv Herby Mixed: auxin/auxin precursor with or without acetaminophen; format: in vivo; settings: auxins/precursors each at 10^−2 Molar solutions; AC at 3 g per hectare equivalent; applied 2 Dec. 2009 (first bud), measured 12 Jan. 2010 (flowering)
Numbers only.

Completed entries (count: 3):
{"columns": ["molecule", "Mean Number of Buds/plant"],
 "data": [
  ["CC(=O)Nc1ccc(O)cc1 [AC, N-(4-hydroxypheyl)acetamide, reference compound]", 2.7],
  ["CC(N)=O [Acetamide]", 2.3],
  ["NCCc1c[nH]c2ccccc12", 2.7]
]}

Now for another entry.
Value of measured Mean Number of Buds/plant for the entry Nc1ccccc1C(=O)[O-].[Na+] [Anthranilic Acid monosodium salt] : 2.3

---

tested on: Chrysanthemum cv Herby Mixed; test: Flower bud thinning, Chrysanthemum cv Herby Mixed: auxin/auxin precursor with or without acetaminophen; assay type: in vivo; conditions: auxins/precursors each at 10^−2 Molar solutions; AC at 3 g per hectare equivalent; applied 2 Dec. 2009 (first bud), measured 12 Jan. 2010 (flowering)
reportedEndpoint: Mean Number of Buds/plant

Completed entries (count: 4):
{"columns": ["compound", "Mean Number of Buds/plant"],
 "data": [
  ["COC(=O)c1ccccc1N [Anthranilic acid methyl ester]", 2.2],
  ["Nc1ccccc1C(=O)O [Anthranilic acid, anthranilic acid]", 2.2],
  ["NC(=O)Cc1c[nH]c2ccccc12 [Indole-3-acetamide]", 2.3],
  ["N[C@@H](Cc1c[nH]c2ccccc12)C(=O)O [L-Tryptophan]", 2.4]
]}

Now for another entry.
Reading of Mean Number of Buds/plant for Nc1c(O)cccc1C(=O)O [3-Hydroxyanthranilic acid] with Chrysanthemum cv Herby Mixed: 2.5
